MIC listing for selected compounds.
test system: Candida tropicalis; assay: In vitro antifungal activity against Candida tropicalis (CT 750); format: functional

[
  {
    "COMPOUND": "COC(=O)N[C@@H]1C[C@@H]2CC[C@@H](C)[C@@](O)(O2)C(=O)C(=O)N2CCCC[C@H]2C(=O)O[C@H]([C@H](C)C[C@@H]2CC[C@@H](O)[C@H](OC)C2)CC(=O)[C@H](C)/C=C(\\C)[C@@H](O)[C@@H](OC)C(=O)[C@H](C)C[C@H](C)/C=C/C=C/C=C/1C",
    "MEASURED_TARGET": "Candida tropicalis",
    "RELATION_OPERATOR": "=",
    "MIC, µg/mL": 1.56
  },
  {
    "COMPOUND": "CO[C@@H]1C[C@H](C[C@@H](C)[C@@H]2CC(=O)[C@H](C)/C=C(\\C)[C@@H](O)[C@@H](OC)C(=O)[C@H](C)C[C@H](C)/C=C/C=C/C=C(\\C)[C@H](N(O)C(=O)N3CCOCC3)C[C@@H]3CC[C@@H](C)[C@@](O)(O3)C(=O)C(=O)N3CCCC[C@H]3C(=O)O2)CC[C@H]1O",
    "MEASURED_TARGET": "Candida tropicalis",
    "RELATION_OPERATOR": "=",
    "MIC, µg/mL": 25
  },
  {
    "COMPOUND": "CO[C@H]1C[C@@H]2CC[C@@H](C)[C@@](O)(O2)C(=O)C(=O)N2CCCC[C@H]2C(=O)O[C@H]([C@H](C)C[C@@H]2CC[C@@H](OC(=O)N3CCNCC3)[C@H](OC)C2)CC(=O)[C@H](C)/C=C(\\C)[C@@H](O)[C@@H](OC)C(=O)[C@H](C)C[C@H](C)CCCC/C=C/1C",
    "MEASURED_TARGET": "Candida tropicalis",
    "RELATION_OPERATOR": ">",
    "MIC, µg/mL": 100
  },
  {
    "COMPOUND": "CCCCOC(=O)N(O)[C@H]1C[C@@H]2CC[C@@H](C)[C@@](O)(O2)C(=O)C(=O)N2CCCC[C@H]2C(=O)O[C@H]([C@H](C)C[C@@H]2CC[C@@H](O)[C@H](OC)C2)CC(=O)[C@H](C)/C=C(\\C)[C@@H](O)[C@@H](OC)C(=O)[C@H](C)C[C@H](C)/C=C/C=C/C=C/1C",
    "MEASURED_TARGET": "Candida tropicalis",
    "RELATION_OPERATOR": "=",
    "MIC, µg/mL": 12.5
  },
  {
    "COMPOUND": "CO[C@@H]1C[C@H](C[C@@H](C)[C@@H]2CC(=O)[C@H](C)/C=C(\\C)[C@@H](O)[C@@H](OC)C(=O)[C@H](C)C[C@H](C)/C=C/C=C/C=C(\\C)[C@H](c3ccc(C)s3)C[C@@H]3CC[C@@H](C)[C@@](O)(O3)C(=O)C(=O)N3CCCC[C@H]3C(=O)O2)CC[C@H]1O",
    "MEASURED_TARGET": "Candida tropicalis",
    "RELATION_OPERATOR": "=",
    "MIC, µg/mL": 1.56
  },
  {
    "COMPOUND": "CO[C@@H]1C[C@H](C[C@@H](C)[C@@H]2CC(=O)[C@H](C)/C=C(\\C)[C@@H](O)[C@@H](OC)C(=O)[C@H](C)C[C@H](C)/C=C/C=C/C=C(\\C)[C@@H](N(O)C(=O)OC(C)C)C[C@@H]3CC[C@@H](C)[C@@](O)(O3)C(=O)C(=O)N3CCCC[C@H]3C(=O)O2)CC[C@H]1O",
    "MEASURED_TARGET": "Candida tropicalis",
    "RELATION_OPERATOR": "=",
    "MIC, µg/mL": 25
  },
  {
    "COMPOUND": "CO[C@@H]1C[C@H](C[C@@H](C)[C@@H]2CC(=O)[C@H](C)/C=C(\\C)[C@@H](O)[C@@H](OC)C(=O)[C@H](C)C[C@H](C)/C=C/C=C/C=C(\\C)[C@@H](N(OC)C(=O)N(C)C)C[C@@H]3CC[C@@H](C)[C@@](O)(O3)C(=O)C(=O)N3CCCC[C@H]3C(=O)O2)CC[C@H]1O",
    "MEASURED_TARGET": "Candida tropicalis",
    "RELATION_OPERATOR": "=",
    "MIC, µg/mL": 50
  },
  {
    "COMPOUND": "CO[C@H]1C[C@@H]2CC[C@@H](C)[C@@](O)(O2)C(=O)C(=O)N2CCCC[C@H]2C(=O)O[C@H]([C@H](C)C[C@@H]2CC[C@@H](OC(=O)N3CCCCC3)[C@H](OC)C2)CC(=O)[C@H](C)/C=C(\\C)[C@@H](O)[C@@H](OC)C(=O)[C@H](C)C[C@H](C)CCCC/C=C/1C",
    "MEASURED_TARGET": "Candida tropicalis",
    "RELATION_OPERATOR": ">",
    "MIC, µg/mL": 100
  },
  {
    "COMPOUND": "CO[C@@H]1C[C@H](C[C@@H](C)[C@@H]2CC(=O)[C@H](C)/C=C(\\C)[C@@H](O)[C@@H](OC)C(=O)[C@H](C)C[C@H](C)/C=C/C=C/C=C(\\C)[C@H](N(O)C(=O)Oc3ccccc3)C[C@@H]3CC[C@@H](C)[C@@](O)(O3)C(=O)C(=O)N3CCCC[C@H]3C(=O)O2)CC[C@H]1O",
    "MEASURED_TARGET": "Candida tropicalis",
    "RELATION_OPERATOR": "=",
    "MIC, µg/mL": 0.78
  },
  {
    "COMPOUND": "CO[C@@H]1C[C@H](C[C@@H](C)[C@@H]2CC(=O)[C@H](C)/C=C(\\C)[C@@H](O)[C@@H](OC)C(=O)[C@H](C)C[C@H](C)/C=C/C=C/C=C(\\C)[C@@H](N(O)C(N)=O)C[C@@H]3CC[C@@H](C)[C@@](O)(O3)C(=O)C(=O)N3CCCC[C@H]3C(=O)O2)CC[C@H]1O",
    "MEASURED_TARGET": "Candida tropicalis",
    "RELATION_OPERATOR": "=",
    "MIC, µg/mL": 12.5
  },
  {
    "COMPOUND": "CO[C@H]1C[C@@H]2CC[C@@H](C)[C@@](O)(O2)C(=O)C(=O)N2CCCC[C@H]2C(=O)O[C@H]([C@H](C)C[C@@H]2CC[C@@H](OC(=O)N3CCOCC3)[C@H](OC)C2)CC(=O)[C@H](C)/C=C(\\C)[C@@H](O)[C@@H](OC)C(=O)[C@H](C)C[C@H](C)CCCC/C=C/1C",
    "MEASURED_TARGET": "Candida tropicalis",
    "RELATION_OPERATOR": ">",
    "MIC, µg/mL": 100
  },
  {
    "COMPOUND": "CO[C@H]1C[C@@H]2CC[C@@H](C)[C@@](O)(O2)C(=O)C(=O)N2CCCC[C@H]2C(=O)O[C@H]([C@H](C)C[C@@H]2CCC(O)[C@H](OC)C2)CC(=O)[C@H](C)/C=C(\\C)[C@@H](O)[C@@H](OC)C(=O)[C@H](C)C[C@H](C)CCCC/C=C/1C (single isomer, unassigned; 2)",
    "MEASURED_TARGET": "Candida tropicalis",
    "RELATION_OPERATOR": "=",
    "MIC, µg/mL": 1.56
  },
  {
    "COMPOUND": "CCCCOC(=O)N(O)[C@@H]1C[C@@H]2CC[C@@H](C)[C@@](O)(O2)C(=O)C(=O)N2CCCC[C@H]2C(=O)O[C@H]([C@H](C)C[C@@H]2CC[C@@H](O)[C@H](OC)C2)CC(=O)[C@H](C)/C=C(\\C)[C@@H](O)[C@@H](OC)C(=O)[C@H](C)C[C@H](C)/C=C/C=C/C=C/1C",
    "MEASURED_TARGET": "Candida tropicalis",
    "RELATION_OPERATOR": "=",
    "MIC, µg/mL": 1.56
  }
]
